Assign melting point to each entry below.

Example cases with answers are listed next.
Cn1c(-c2ccc(S(C)(=O)=O)cc2)c(-c2ccccc2)c(=O)n1C [Example 6] :: 210 to 212 °C
Cn1c(-c2ccc(S(C)(=O)=O)cc2)c(-c2ccc(Cl)c(Cl)c2)c(=O)n1C [Example 8] :: 240 to 242 °C
Cc1ccc(-c2c(-c3ccc(S(C)(=O)=O)cc3)n(C)n(C)c2=O)cc1 [Example 7] :: 247 to 249 °C

Next:
[Q] Could you share which melting point value was measured for COc1ccc(-c2c(-c3ccc(S(C)(=O)=O)cc3)n(C)n(C)c2=O)cc1 [Example 5] ?
[A] 245 to 247 °C
